Taken from patent US8354432B2.

# SUBJECT OF TEST: CCR1 (Homo sapiens, UniProt P32246)
# Construct: the THP-1 cell line, which expresses the endogenous CCR1 receptor; endogenous in cells; host or cells: THP-1 cells (human monocytic line); the text also allows human PBMC or human monocytes
# Sequence (P32246 whole entry): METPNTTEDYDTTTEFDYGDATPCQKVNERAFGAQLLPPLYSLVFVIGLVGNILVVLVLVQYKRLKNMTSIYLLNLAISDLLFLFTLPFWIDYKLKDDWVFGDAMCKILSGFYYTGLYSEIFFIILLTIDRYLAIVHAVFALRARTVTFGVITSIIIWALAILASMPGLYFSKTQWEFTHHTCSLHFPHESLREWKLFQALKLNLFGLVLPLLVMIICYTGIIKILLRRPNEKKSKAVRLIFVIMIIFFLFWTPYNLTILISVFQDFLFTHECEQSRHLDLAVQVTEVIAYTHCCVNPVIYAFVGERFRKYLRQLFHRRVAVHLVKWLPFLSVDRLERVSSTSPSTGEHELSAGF
# PROCEDURE DETAILS: Antagonism of MIP-1α binding to human THP-1 cells (CCR1 binding)
# CONDITION: 125-I labeled human MIP-1α (50 pM), THP-1 cells expressing endogenous CCR1, room temperature, thirty minutes; read-out: CCR1 Binding Ki (n = 1 unless otherwise noted)
pKi: −log10 of the molar value.
Label Satisfied when pKi >= 8; otherwise Not satisfied.

Example entries and their recorded answers appear below.
>  <COMPOUND>
COc1cc(N2CCC(C(O)Cn3nc(C(F)(F)F)nc3C)CC2)ccc1Cl (racemic) [Example 2h]

>  <QUALITATIVE LABEL>
Not satisfied

$$$$
>  <COMPOUND>
COc1cc(N2CCC(C(Cn3nc(C(F)(F)F)c(Cl)c3C)NC(=O)CO)CC2)c(Cl)cc1Cl (stereo not drawn) [Example 4i]

>  <QUALITATIVE LABEL>
Satisfied

$$$$
>  <COMPOUND>
COc1cccc(N2CCC(C(O)Cn3nc(C(F)(F)F)c(Cl)c3C)CC2)c1 (racemic) [Example 15b]

>  <QUALITATIVE LABEL>
Not satisfied

$$$$
>  <COMPOUND>
COc1cc(N2CCC(C(N)Cn3nc(C(F)(F)F)c(Cl)c3C)CC2)c(Cl)cc1Cl (racemic) [Example 4a]

>  <QUALITATIVE LABEL>
Not satisfied

$$$$
>  <COMPOUND>
COc1cc(N2CCC(C(Cn3nc(C(F)(F)F)c(Cl)c3C)NC(=O)[C@@H](C)O)CC2)c(Cl)cc1Cl (mixture of isomers) [Example 4n]

>  <QUALITATIVE LABEL>
Satisfied

$$$$

Now take the following compound into account.
Ask | Say whether COc1cc(N2CCC(C(Cn3nc(C(F)(F)F)cc3C)NC(=O)CN)CC2)ccc1Cl (single isomer, unassigned) [Example 5c] shows pKi of 8 or more.
Reply | Not satisfied

###

# SUBJECT OF TEST: CCR1 (Homo sapiens, UniProt P32246)
# Construct: the THP-1 cell line, which expresses the endogenous CCR1 receptor; endogenous in cells; host or cells: THP-1 cells (human monocytic line); the text also allows human PBMC or human monocytes
# PROCEDURE DETAILS: Antagonism of MIP-1α binding to human THP-1 cells (CCR1 binding)
# Protocol: Antagonism of MIP-1α Binding to Human THP-1 Cells Compounds of the present invention have activity in the antagonism of MIP-1α binding to human THP-1 cells described here. Millipore filter plates (#MABVN1250) are treated with 100 μl of binding buffer (0.5% bovine serum albumin, 20 mM HEPES buffer and 5 mM magnesium chloride in RPMI 1640 media) for thirty minutes at room temperature. […] The plastic skirt is removed from the plate, the plate allowed to air dry, the wells punched out and counted. […]
MEASURE NAME: Ki (nM)
Unit nM implied. Number only.

Lab note: COc1cc(N2CCC(C(Cn3nc(C(F)(F)F)c(Cl)c3C)NC(=O)CF)CC2)c(Cl)cc1Cl (racemic) gave Ki of 4.3

###

# SUBJECT OF TEST: CCR1 (Homo sapiens)
# Construct: the THP-1 cell line, which expresses the endogenous CCR1 receptor; endogenous in cells; host or cells: THP-1 cells (human monocytic line); the text also allows human PBMC or human monocytes
# PROCEDURE DETAILS: Antagonism of MIP-1α binding to human THP-1 cells (CCR1 binding)
# CONDITION: 125-I labeled human MIP-1α (50 pM), THP-1 cells expressing endogenous CCR1, room temperature, thirty minutes; read-out: CCR1 Binding Ki (n = 1 unless otherwise noted)
MEASURE NAME: Ki

>  <COMPOUND>
COc1cc(N2CCC(C(O)Cn3nc(N)c4cccnc43)CC2)ccc1Cl (racemic)

>  <RESULT>
~2.22 µM

$$$$
>  <COMPOUND>
COc1cc(N2CCC(C(Cn3nc(C(F)(F)F)c(Cl)c3C)NC(C)=O)CC2)c(Cl)cc1Cl (racemic)

>  <RESULT>
0.0068 µM

$$$$

Okay, next one:
Lab note: COc1cc(N2CCC(C)(C(O)Cn3nc(C(F)(F)F)c(Cl)c3C)CC2)ccc1Cl (racemic) gave Ki of ~1.25 µM
